The measured values listed here are drawn from patent US5567692A.

Catalogue of compounds with associated MIC
test system: E. coli J3272 Tet C; test: microbe, parasite or virus in culture; type: cell-based; details: Escherichia coli, J3272TETC, 18 h
Counter-ions that a name gives are not always drawn.
Expressed in µg/mL, but write only the number.

CN(C)[C@@H]1C(O)=C(C(N)=O)C(=O)[C@@]2(O)C(O)=C3C(=O)c4c(ccc(NC(=O)CN5CCCC5)c4O)CC3CC12 (stereo partly drawn) [D, dihydrochloride] = 0.25
CCCCNCC(=O)Nc1ccc2c(c1O)C(=O)C1=C(O)[C@]3(O)C(=O)C(C(N)=O)=C(O)[C@@H](N(C)C)C3CC1C2 (stereo partly drawn) [H, dihydrochloride] = 0.12
CN(C)[C@@H]1C(O)=C(C(N)=O)C(=O)[C@@]2(O)C(O)=C3C(=O)c4c(ccc(NC(=O)CNCc5cccs5)c4O)CC3CC12 (stereo partly drawn) [L, dihydrochloride] = 32
CCNCC(=O)Nc1ccc2c(c1O)C(=O)C1=C(O)[C@]3(O)C(=O)C(C(N)=O)=C(O)[C@@H](N(C)C)C3CC1C2 (stereo partly drawn) [E, dihydrochloride] = 1
CN(C)CC(=O)Nc1ccc2c(c1O)C(=O)C1=C(O)[C@]3(O)C(=O)C(C(=O)NCN4CCCC4)=C(O)[C@@H](N(C)C)C3CC1C2 (stereo partly drawn) = 1
CC(C(=O)Nc1ccc2c(c1O)C(=O)C1=C(O)[C@]3(O)C(=O)C(C(N)=O)=C(O)[C@@H](N(C)C)C3CC1C2)N1CCCC1 (stereo partly drawn) = 1

Could you tell me which MIC is on file for CC1CCN(CC(=O)Nc2ccc3c(c2O)C(=O)C2=C(O)[C@]4(O)C(=O)C(C(N)=O)=C(O)[C@@H](N(C)C)C4CC2C3)CC1 (stereo partly drawn) [A, dihydrochloride] ?
1

Could you tell me which MIC is on file for CCCCCCNCC(=O)Nc1ccc2c(c1O)C(=O)C1=C(O)[C@]3(O)C(=O)C(C(N)=O)=C(O)[C@@H](N(C)C)C3CC1C2 (stereo partly drawn) [G, dihydrochloride] ?
1
